- assay_system: Dimer of Gag-Pol polyprotein [489-587,K509R,V521I,L522F,M525I,I543V,L552P,A560V,V571A,I573V,L579M] (Human immunodeficiency virus 1, UniProt P04585, A560V/I543V/I573V/K509R/L522F/L552P/L579M/M525I/V521I/V571A)
- Construct: 489-587
- experimental_protocol: Protease Inhibition Assay
measurement_name: Ki (nM)

In [3]: df
Out[3]:
                    structure_smiles_string  result_unit  measurement
0  Cc1ccccc1CNC(=O)[C@H]1N(C(=O)[C@@H](O)[C@H](Cc2ccccc2)NC(=O)c2cccc(O)c2C)CSC1(C)C           nM          9.4

Source listed as BindingDB's records for doi:10.1021/bi049459m.
